Below, each of the molecules is paired with its reported logP value.
assay: from Kurihara, N.; Yamakawa, K.; Fujita, T.; Nakajima, M. (1980). Studies on BHC isomers and related compounds. XXVI. Anaerobic degradation of tetra-, penta- and hexachlorocyclohexane isomers by rat liver …
# output: bare number, no unit

Challenge: GET /values?readout=logP&item= ClC1=CC(Cl)C(Cl)C(Cl)C1Cl (stereo not drawn)
Response given: 3.61

Challenge: Then what about the molecule ClC1=C(Cl)C(Cl)C(Cl)C(Cl)C1Cl (stereo not drawn) ?
Response given: 4.31

Challenge: For ClC1C=CC(Cl)C(Cl)C1Cl (stereo not drawn) then?
Response given: 3.08
